Test system: OVCAR-8 ovarian
Experiment: NCI-60 one-dose screen, 48 h (100 = growth as untreated, 0 = no growth, -100 = all killed)
Condition Set: 10 µM
Experimental: Growth inhibition of the OVCAR-8 human tumor cell line is measured as a screen for anti-cancer activity. Cells are grown in 96 well plates and exposed to the test compound for 48 hours. Compounds are tested at a single concentration, which is 10^-5 M for most compounds. The reported endpoint is percent growth (GI% or GIPRCNT), where numbers from 0 - 100% represent growth inhibition, and numbers from -100% - 0 represent cell death. For example, a value of 40 represents 60% growth inhibition. […]
Compounds without any hit were thinned out: in the full panel of roughly 83,000, 20% have a hit.
Simple rule here: growth less than 60% is Criterion met, otherwise Criterion not met.

# Compound, Answer Label
measured = [
    ("O=C(CCCCCCC(=O)Nc1ccccc1)NO", "Criterion met"),
    ("COc1ccc(-c2cc(-c3ccc(Cl)cc3)nc(SCCCCCCC(=O)NO)n2)cc1OC", "Criterion met"),
    ("CCN(CC)CCOc1ccc2c(c1O)C(=O)c1ccccc1C2=O", "Criterion not met"),
    ("COc1cc2cc(Oc3ccc(NC(=O)c4cccc(C(F)(F)F)c4)cc3)c(C)nc2cc1OC", "Criterion met"),
    ("O=C1CSC(=S)N1/N=C/c1ccc(Cl)s1", "Criterion not met"),
]

With those in mind, consider the next compound.
In plain terms, does COc1cc(-c2nn(-c3cccc(NC(=O)CCNc4ccc(N5CCOCC5)cc4)c3)cc2-c2ccncc2)ccc1Cl come in under 60% for growth?
Criterion met

---

// growth lookup, one value per entry
Test system: CAKI-1 renal
Experiment: NCI-60 one-dose screen, 48 h (100 = growth as untreated, 0 = no growth, -100 = all killed)
Condition Set: 10 µM
About 83,000 compounds went through this panel and 20% of them were active in at least one assay; those are over-represented in the sample as a whole.
The answer is to be given in %; state only the numeric part.

# Compound, growth, %
records = [
    ("CCCC1(CN2c3ccccc3Sc3ccc(Cl)cc32)CCN(CC)C1 (centres undefined)", -14.2),
    ("C/C=C/C1=CN2C(=O)c3cc(OC4OC(C)C(NC)C(C)(O)C4O)c(C)c(O)c3N=C[C@@H]2C1 (some centres undefined)", 9.27),
    ("O[C@@H]1CO[C@H]2[C@@H]1OC[C@@H]2O", 79.2),
    ("CC(C)N(CCOc1ccc(-c2nc3sccn3c2-c2ccnc(S(C)(=O)=O)n2)cc1)C(C)C", 84.2),
    ("COc1cccc(N=Nc2cccc(OC)c2)c1", 94.2),
]

Need growth of C[C@]12CC[C@@H]3c4ccc(OS(=O)(=O)O)cc4CC[C@H]3[C@@H]1CC[C@@H]2NS(=O)(=O)c1ccc(-c2ccccc2)cc1 , thanks.
66.2

Value lookup for growth; key = CN(C)CCCN1c2ccccc2CCc2ccc(Cl)cc21
51.6

Look up growth: CCOC(=O)C1=CSC2=NC3=C(CCC/C3=C\c3cc(OC)c(OC)c(OC)c3)C(c3cc(OC)c(OC)c(OC)c3)N12 (centres undefined)
66.3

Query (compound): CS(=O)(=O)c1nccc(-c2c(-c3cccc(OCc4ccc(F)cc4)c3)nc3sccn23)n1 ; field requested: growth
34.4
